- method_description: Fluorescence maximum of the dye
- Type: physicochemical
- condition_summary: solvent PBS pH 7.4
Marks after values point to notes of the source that are not given here.
readout: λfl

Find the recorded λfl belonging to CC[N+]1=c2cc3c(cc2C(CS(=O)(=O)O)=CC1(C)C)=C(c1c(F)c(F)c(SCCS(=O)(=O)O)c(F)c1F)c1cc2c(cc1C3(C)C)N(Cc1ccc(S(=O)(=O)O)cc1S(=O)(=O)O)CCC2 [Compound 42] and report it.
701^b nm

Find the recorded λfl belonging to Cn1cc[n+](CCCCS(=O)(=O)O)c1C1=c2cc3c(cc2C(C)(C)c2cc4c(cc21)C(CS(=O)(=O)O)=CC(C)(C)N4CCCC(=O)O)=[N+](Cc1ccc(S(=O)(=O)O)cc1S(=O)(=O)O)CCC3 [Compound 57] and report it.
749^b nm

Find the recorded λfl belonging to Cn1cc[n+](CCCC(=O)O)c1C1=c2cc3c(cc2[Si](C)(C)c2cc4c(cc21)C(CS(=O)(=O)O)=CC(C)(C)N4Cc1ccc(S(=O)(=O)O)cc1S(=O)(=O)O)=[N+](Cc1ccc(S(=O)(=O)O)cc1S(=O)(=O)O)C(C)(C)C=C3CS(=O)(=O)O [Compound 62] and report it.
817^b nm

Find the recorded λfl belonging to CC1(C)C=C(CS(=O)(=O)O)c2cc3c(cc2N1CCS(=O)(=O)O)[Si](C)(C)c1cc2c(cc1=C3NC(CCS(=O)(=O)O)C(=O)O)C(CS(=O)(=O)O)=CC(C)(C)[N+]=2CCS(=O)(=O)O (stereo not shown) [Compound 96] and report it.
695^b nm

Find the recorded λfl belonging to CCN(CS(=O)(=O)O)c1ccc2c(c1)[Si](C)(C)C1=C/C(=[N+](/CC)CS(=O)(=O)O)C=CC1=C2NCCS(=O)(=O)O [Compound 87] and report it.
605^b nm

Find the recorded λfl belonging to CCN1c2cc3c(cc2C(CS(=O)(=O)O)=CC1(C)C)C(c1n(C)cc[n+]1CCCC(=O)O)=c1cc2c(cc1C3(C)C)=[N+](Cc1ccc(S(=O)(=O)O)cc1S(=O)(=O)O)CCC2 [Compound 56] and report it.
746^b nm

Find the recorded λfl belonging to CC1(C)C=C(CS(=O)(=O)O)c2cc3c(cc2N1CCCC(=O)O)[Si](C)(C)c1cc2c(cc1=C3C#N)C(CS(=O)(=O)O)=CC(C)(C)[N+]=2CCS(=O)(=O)O [Compound 92] and report it.
841^b nm

Find the recorded λfl belonging to CC1(C)C=C(CS(=O)(=O)O)c2cc3c(cc2N1CCCC(=O)O)[Si](C)(C)c1cc2c(cc1=C3)C(CS(=O)(=O)O)=CC(C)(C)[N+]=2CS(=O)(=O)O [Compound 91] and report it.
738^b nm

Find the recorded λfl belonging to Cc1cc(=O)n(CC(=O)O)c2cc(NCS(=O)(=O)O)c(S(=O)(=O)O)cc12 [Compound 108] and report it.
411^b nm

Find the recorded λfl belonging to CN(CCCC(=O)O)C(=O)c1ccccc1-c1c2cc(S(=O)(=O)O)/c(=N/CCc3ccc(S(=O)(=O)O)cc3S(=O)(=O)O)cc-2oc2cc(NCCc3ccc(S(=O)(=O)O)cc3S(=O)(=O)O)c(S(=O)(=O)O)cc12 [Compound 25] and report it.
560^b nm
